Tested on: Human immunodeficiency virus 1
Experiment: Concentration required to inhibit 50% viral production of human immunodeficiency virus type 1 (HIV-1-IIIB)
Format: functional, organism-based
pIC50: −log10 of the molar value.
Assign 1 to entries whose pIC50 meets or exceeds 8; assign 0 to the rest.

See these solved cases before continuing.
O=C1Nc2ccc(Cl)cc2[C@@](C#CC2CC2)(C(F)(F)F)N1
1
S=C(NCCc1ccccc1)Nc1nccs1
0
CN1C(=O)c2ccccc2C1(N)c1ccccc1 (stereo unspecified)
0
CC(=O)c1ccccc1NC(C(N)=O)c1c(Cl)cccc1Cl (stereo unspecified)
0
CC(=O)c1ccc(C)cc1NC(C(N)=O)c1c(Br)cccc1Br (stereo unspecified)
0

Quick check: does Cc1c(Sc2ccccc2)n(COCCO)c(=O)[nH]c1=O [HEPT] have pIC50 greater than or equal to 8?
0

Form field: pIC50 at least 8? Entry: `Cc1cc(C)cc(Cc2c(C(C)C)c(=O)[nH]c(=O)n2COCCO)c1`
1

Dear colleague, could you confirm whether CC(C)=CCN1Cc2c(Cl)ccc3[nH]c(=S)n(c23)C[C@@H]1C [TIVIRAPINE] has pIC50 at or above 8?
1
